Data origin: PubChem BioAssay AID777

- target-desc: Cytochrome P450 2C9 (Homo sapiens) (UniProt P11712)
- Sequence (P11712 whole entry, looked up): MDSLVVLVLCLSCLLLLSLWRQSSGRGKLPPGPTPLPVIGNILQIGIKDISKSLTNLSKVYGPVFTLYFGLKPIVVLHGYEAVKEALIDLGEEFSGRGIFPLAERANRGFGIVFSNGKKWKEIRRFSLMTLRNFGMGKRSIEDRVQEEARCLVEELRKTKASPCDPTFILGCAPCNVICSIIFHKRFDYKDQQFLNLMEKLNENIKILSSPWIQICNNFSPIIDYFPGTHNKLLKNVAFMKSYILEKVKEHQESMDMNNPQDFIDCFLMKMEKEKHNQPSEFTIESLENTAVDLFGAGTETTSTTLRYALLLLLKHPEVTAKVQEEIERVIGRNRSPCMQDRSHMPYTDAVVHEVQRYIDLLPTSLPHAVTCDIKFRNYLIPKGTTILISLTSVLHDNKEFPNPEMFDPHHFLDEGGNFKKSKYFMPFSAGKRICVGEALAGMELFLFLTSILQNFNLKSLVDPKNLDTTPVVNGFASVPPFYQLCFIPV
- protocol-notes: blockers of cytochrome P450 2C9 activity – biochemical, luminescence, ADME assay, primary screen (AID 777)
- reported-conditions: CYP2C9 Supersomes, luciferin-H conversion, at 5 µM, stronger effect = higher value
The campaign covered roughly 96,000 compounds. About 19,000 (20%) were called active. Only a sample is shown.
Criterion: inhibition meeting or surpassing 50%. Met: met. Not met: not met.

Cc1c(C(=O)N2CCOCC2)[nH]c2ccc(OCc3ccccc3)cc12 = met
CCCc1ccc(OCc2ccc(C(=O)N/N=C/c3cccc([N+](=O)[O-])c3)o2)c(OC)c1 = not met
Cc1noc(/C=C/c2ccco2)c1S(=O)(=O)N1CCC(C(=O)N2CCc3ccccc32)CC1 = met
CS(=O)(=O)Nc1cccc(C2=NN(S(=O)(=O)c3ccccc3)C(c3cccs3)C2)c1 (configuration not stated) = met
O=C(NC1CCCCC1)c1ccc2c(=O)n(CC3CCCO3)c(=O)[nH]c2c1 (configuration not stated) = not met

Problem: Confirm if inhibition reported for the compound `Cc1ccc(S(=O)(=O)N(CC(=O)NCCSC2CCCCC2)c2ccccc2F)cc1` is 50% or above.
Solution: not met

Problem: Confirm if inhibition reported for the compound Cc1noc(COc2ccccc2OCC(O)CNC(C)(C)C)n1 (configuration not stated) is 50% or above.
Solution: not met

Problem: Confirm if inhibition reported for the compound `CCN(Cc1ccccc1)C(=O)CSc1nc(C)cc2c1C(=O)OC2` is 50% or above.
Solution: not met

Problem: Confirm if inhibition reported for the compound `COc1cc(OC)c(/C=N/NC(=O)c2ccc([N+](=O)[O-])cc2)cc1Br` is 50% or above.
Solution: not met

Problem: Confirm if inhibition reported for the compound `CCCC(=O)Nc1ccc(C(=O)NCCCn2ccnc2)cc1` is 50% or above.
Solution: not met

Problem: Confirm if inhibition reported for the compound CCOc1ccc(OCC)c(NC(=O)C(NS(=O)(=O)c2ccc3c(c2)oc(=O)n3C)C(C)C)c1 (configuration not stated) is 50% or above.
Solution: not met

---

- target-desc: Cytochrome P450 2C9 (Homo sapiens)
- protocol-notes: blockers of cytochrome P450 2C9 activity – biochemical, luminescence, ADME assay, primary screen (AID 777)
- reported-conditions: CYP2C9 Supersomes, luciferin-H conversion, at 5 µM, stronger effect = higher value
About 19,000 (20%) of roughly 96,000 compounds were called active. These entries were drawn from the full list.
Criterion: inhibition meeting or surpassing 30%. Met: yes (1). Not met: no (0).

CC1=C(C(=O)OCc2ccccc2)C(c2ccco2)n2ncnc2N1 (stereo not given) = no (0)
COc1ccc(/C=N/Nc2nc3ccccc3o2)cc1OC = no (0)
C=CCOC(=O)C1=C(C)OC(N)=C(C#N)C1c1ccc(F)cc1 (stereo not given) = yes (1)

Next:
Problem: Confirm if inhibition reported for the molecule `COC(=O)c1ccccc1NC(=O)CN(Cc1ccccc1)S(C)(=O)=O` is 30% or above.
Solution: no (0)

---

In this section, each of the molecules is paired with its reported inhibition.
- target-desc: Cytochrome P450 2C9 (Homo sapiens) (UniProt P11712)
- protocol-notes: blockers of cytochrome P450 2C9 activity – biochemical, luminescence, ADME assay, primary screen (AID 777)
- reported-conditions: CYP2C9 Supersomes, luciferin-H conversion, at 5 µM, stronger effect = higher value
Among all 96,000 compounds or so, about 19,000 (20%) were called active. A selection follows.
Please state the figure in %; there is no need to write the unit.

Recorded inhibition, per entry:
Cc1ccc(SCC2=NNC(=O)C2)cc1 = -7.3
O=C(O)c1cnn2c(C(F)(F)F)cc(-c3ccccc3)nc12 = 18.5
O=C(NCCCN1CCOCC1)c1cnn2c(-c3ccccc3)cc(-c3ccccc3)nc12 = 7.3
Cc1cccc(N2CCN(C(=O)c3cnn4c(C(F)F)cc(-c5ccccc5)nc34)CC2)c1C = 93.5
CC(C)c1ccc(NC(=O)CCN2C(=O)c3ccc([N+](=O)[O-])cc3C2=O)cc1 = 14.3
O=C(Nc1ccc(Cl)cc1)c1cc2nc(C3CC3)cc(C(F)(F)F)n2n1 = -1.8
COc1cccc2c1OCC1COc3c(c(=O)n(C)c(=O)n3C)C21 (centres undefined) = -6
COc1ccc(C(=O)Nc2ccccc2C(=O)N/N=C/c2ccc(O)c(OC)c2)cc1 = 73.4

response.value for `CN(C)c1ccnc2sc3c(=O)n(Cc4ccccc4)cnc3c12` (field: inhibition) = 49.6

response.value for `O=C(Nc1ccc2c(c1)nc1n2CCCCC1)c1cc(S(=O)(=O)N2CCOCC2)ccc1Cl` (field: inhibition) = 43.5

response.value for `CCOC(=O)c1c(C)oc2ccc(OCC(=O)N(CC)CC)cc12` (field: inhibition) = -13.4

response.value for `CCOC(=O)CN1C(=O)C(=O)c2cc(C)ccc21` (field: inhibition) = 8.3

response.value for `O=C(Nc1ccc(F)c(Cl)c1)C1CCN(S(=O)(=O)c2cccnc2)CC1` (field: inhibition) = 9.3

response.value for CN1CCN(CC(O)COCc2ccc3c(c2)OCO3)CC1 (centres undefined) (field: inhibition) = -13.3

response.value for `CCOc1ccc(S(=O)(=O)N(CC(=O)O)c2ccccc2)cc1` (field: inhibition) = 17.7

response.value for `CCCC(=O)N(CCc1ccccc1)Cc1nc2ccccc2c(=O)[nH]1` (field: inhibition) = 38.3

response.value for Cc1ccc(C2CC(c3cccc(Br)c3)n3nc(N)nc3N2)cc1 (centres undefined) (field: inhibition) = 5.1

response.value for `Cc1ccc(S(=O)(=O)N2CCOCC2)cc1C(=O)NCc1ccc(F)cc1` (field: inhibition) = 31.6

response.value for `COc1ccc(CN2CN(C(C)C)CSC2=S)cc1` (field: inhibition) = 34

response.value for `O=C(O)c1ccc(COc2c(F)c(F)cc(F)c2F)o1` (field: inhibition) = -9.4

response.value for `O=C(Cc1c(F)cccc1Cl)N1CCN(C(=O)c2ccco2)CC1` (field: inhibition) = 11.7

response.value for `O=C(Nc1nn(Cc2ccccc2F)cc1Br)c1cccs1` (field: inhibition) = 8

response.value for `COc1ccc(N(C(=O)c2cccnc2)S(=O)(=O)c2ccc3c(c2)n(C)c(=O)n3C)cc1` (field: inhibition) = 86.2

response.value for CCC(c1nnnn1Cc1ccco1)N(Cc1cc2cc(OC)ccc2[nH]c1=O)C1CCCCC1 (centres undefined) (field: inhibition) = 58.2
